system.name: T1, recombinant human mesothelin (MSLN) (human, UniProt Q13421 296-580, limits assumed)
T1 construct: also called human MSLN; recombinant human MSLN
test: SPR, Biacore T-200; MSLN amine-coupled to CM5 chip, IgG in flow
pKd: −log10 of the molar value.
Parameter pKd: see the listing below.
quantity.name: pKd

• clone MI329 anti-MSLN antibody (antibody, V domains shown, also called M1329) VH: EVMLVESGGDLVKPGGSLKLSCAASGFTFSSYAMSWVRRTPEKRLEWVATINSDGSYTFYPDSVKGRFTISRDNAKNTLYLQMNSLRSEDTAMYYCARWGENWYFDVWGAGTTVTVSS VL: DVVMTQTPLSLPVSLGDQASISCRSSQSLVHSNGNTYLHWYLQKPGQSPKLLIYKVSNRFSGVPDRFSGSGSGTDFTLKISRVEAEDLGIYFCSQSTHFPRTFGGATKLELKR = 10.46
• clone MS502 anti-MSLN antibody (antibody, V domains shown, SPR and FACS done with IgG: human IgG1 heavy chain constant region) VH: EVQLLESGGGLVQPGGSLRLSCAASGFTFSNYAMSWVRQAPGKGLEWVSGIPPDSGSKYYADSVRGRFTVSRDNSKNTLYLQMNSLRAEDTAVYYCAKNMLSFDYWGQGTLVTVSS VL: QSVLTQPPSASGTPGQRVTISCTGSSSNIGSNAVSWYQQLPGTAPKLLIYYNSKRPSGVPDRFSGSKSGTSASLAISGLRSEDEADYYCGSWDSSLNGYVFGGGTKVTVLG = 9.64
• clone MI403 anti-MSLN antibody (antibody, V domains shown, also called M1403) VH: EVQVVESGGGLVKPGGSLKLSCAASGFAFSSYDMSWVRQTPEKRLEWVAYISSGGGSTYYPDTVKGRFTISRDNAKNTLYLQMNSLKSEDTAMYYCARQGTAVKNYWYFDVWGAGTSVTVSS VL: DIVMTQSPASLAVSLGQRATISCRASQSVSTSSSSYVHWYQQRPGQPPKLLIKYASNLESGVPARFSGSGSGTDFTLNIHPVEEEDTGTYYCQHSWEIPFTFGSGTKLEIKR = 9.35
• clone MI323 anti-MSLN antibody (antibody, V domains shown, also called M1323) VH: EVQLQQSGPELVKPGTSVKISCKASGYSFTSYFIQWVKQRPGQGLEWIGWIFPGSGNTKYNEMFKGKATLAADTSSSTAYMQLSSLTSEDSAVYFCARSGGYQYYFDYWGQGTSVTVSS VL: DIVMTQSHKFMSTSVGDRVSITCKASQDVSTAVAWYQQKPGQSPKLLIYSASYRYPGVPDRFTGSGSGTDFTFTISSVQAEDLALYYCQQHYSTPWTFGGGTKLEIKR = 9.74
